- experimental system: human Gal-1 (hGal-1) (Homo sapiens, UniProt P09382, C131S/C17S/C43S/C61S/C89S)
- test description: Competitive binding assay: biotinylated hGal-1 binding to microplate-adsorbed asialofetuin (ASF)
- assay context: IC50 values from several measurements given as geomean
endpoint name: IC50 (µM)
Answers are plain numbers, in µM.

Check out these entries, answers already filled in.
>>> result_value("CO[C@@H]1[C@@H](n2cc(-c3ccc(Cl)c(F)c3F)nn2)[C@@H](O)[C@@H](CO)O[C@@H]1Cc1cn(C2COCC2(F)F)nn1 (mixture of isomers) [Example 2.1.90.B]")
0.91
>>> result_value("CCC1(c2cn(C[C@H]3O[C@H](CO)[C@H](O)[C@H](n4cc(-c5ccc(C)c(F)c5F)nn4)[C@H]3OC)nn2)COC1")
2.65
>>> result_value("CO[C@@H]1[C@@H](n2cc(-c3ccc(Br)c(F)c3F)nn2)[C@@H](O)[C@@H](CO)O[C@@H]1Cc1cn(C2(C(F)F)CC2)nn1")
1.29
>>> result_value("CO[C@@H]1[C@@H](n2cc(-c3ccc(C)c(F)c3F)nn2)[C@@H](O)[C@@H](CO)O[C@@H]1Cc1cn(C2(C)CC(F)(F)C2)nn1")
1.76
>>> result_value("CO[C@@H]1[C@@H](n2cc(-c3ccc(C)c(F)c3F)nn2)[C@@H](O)[C@@H](CO)O[C@@H]1Cc1cn([C@]2(C)C[C@@H](O)C2)nn1")
1.41

Input: // map CO[C@@H]1[C@@H](n2cc(-c3ccc(Cl)c(F)c3F)nn2)[C@@H](O)[C@@H](CO)O[C@@H]1Cc1cn(C2(CCO)COC2)nn1 to recorded IC50 (system: human Gal-1 (hGal-1) (Homo sapiens, UniProt P09382, C131S/C17S/C43S/C61S/C89S))
Output: 0.68

---

- experimental system: human Gal-1 (hGal-1) (Homo sapiens, UniProt P09382, C131S/C17S/C43S/C61S/C89S)
- test description: Competitive binding assay: biotinylated hGal-1 binding to microplate-adsorbed asialofetuin (ASF)
- assay context: IC50 values from several measurements given as geomean
Assign pIC50 to each entry below.
Give bare numbers, as −log10 of the molar value.

Check out these entries, answers already filled in.
>>> result_value("CO[C@@H]1[C@@H](n2cc(-c3ccc(C)c(F)c3F)nn2)[C@@H](O)[C@@H](CO)O[C@@H]1Cc1cn(C2CC3(COC3)C2)nn1")
5.43
>>> result_value("CO[C@@H]1[C@@H](n2cc(-c3ccc(Cl)c(F)c3F)nn2)[C@@H](O)[C@@H](CO)O[C@@H]1Cc1cn(C2(C(F)(F)F)CCCC2)nn1")
5.99
>>> result_value("CO[C@@H]1[C@@H](n2cc(-c3ccc(F)c(F)c3F)nn2)[C@@H](O)[C@@H](CO)O[C@@H]1Cc1cn(C2CC3(COC3)C2)nn1")
5.95

Below is a list of molecules. For each, state its recorded pIC50.
1. CO[C@@H]1[C@@H](n2cc(-c3ccc(Br)c(F)c3F)nn2)[C@@H](O)[C@@H](CO)O[C@@H]1Cc1cn([C@H]2CCCC2(F)F)nn1
2. CO[C@@H]1[C@@H](n2cc(-c3ccc(C)c(F)c3F)nn2)[C@@H](O)[C@@H](CO)O[C@@H]1Cc1cn(C2(C)CC2)nn1
3. CO[C@@H]1[C@@H](n2cc(-c3ccc(Cl)c(F)c3F)nn2)[C@@H](O)[C@@H](CO)O[C@@H]1Cc1cn([C@@H]2CC[C@@H]2F)nn1 (single isomer, unassigned) [Example 2.1.88.B]
4. CO[C@@H]1[C@@H](n2cc(-c3ccc(Cl)c(F)c3F)nn2)[C@@H](O)[C@@H](CO)O[C@@H]1Cc1cn(C2(C(F)(F)F)CC2)nn1

Output:
1. 5.74
2. 5.97
3. 6.04
4. 6.15

Give one value of pIC50 per listed molecule.
1. CO[C@@H]1[C@@H](n2cc(-c3ccc(Cl)c(F)c3F)nn2)[C@@H](O)[C@@H](CO)O[C@@H]1Cc1cn([C@@H]2COC[C@@H]2F)nn1 (single isomer, unassigned) [Example 2.1.74.A]
2. CO[C@@H]1[C@@H](n2cc(-c3ccc(F)c(F)c3F)nn2)[C@@H](O)[C@@H](CO)O[C@@H]1Cc1cn(C2(C)COC2)nn1
3. CO[C@@H]1[C@@H](n2cc(-c3ccc(F)c(F)c3F)nn2)[C@@H](O)[C@@H](CO)O[C@@H]1Cn1cc(C(C)(C)O)nn1
4. CO[C@@H]1[C@@H](n2cc(-c3ccc(Br)c(F)c3F)nn2)[C@@H](O)[C@@H](CO)O[C@@H]1Cc1cn(C2(CO)CC2)nn1
5. CO[C@@H]1[C@@H](n2cc(-c3ccc(Br)c(F)c3F)nn2)[C@@H](O)[C@@H](CO)O[C@@H]1Cc1cn(C2(C(F)(F)F)COC2)nn1
6. CO[C@@H]1[C@@H](n2cc(-c3ccc(F)c(F)c3F)nn2)[C@@H](O)[C@@H](CO)O[C@@H]1Cc1cn(C23CC(C(F)(F)F)(C2)C3)nn1
7. CO[C@@H]1[C@@H](n2cc(-c3ccc(Cl)c(F)c3F)nn2)[C@@H](O)[C@@H](CO)O[C@@H]1Cc1cn(C2CC(C(F)(F)F)C2)nn1 (stereo partly shown)
8. CO[C@@H]1[C@@H](n2cc(-c3ccc(Cl)c(F)c3F)nn2)[C@@H](O)[C@@H](CO)O[C@@H]1Cc1cn([C@@H]2COC[C@H]2F)nn1 (single isomer, unassigned) [Example 2.1.74.C]

Output:
[6.35, 6.72, 6.14, 5.53, 5.97, 5.68, 5.04, 5.40]

Batch request: pIC50 for each of the following molecules.
1. CO[C@@H]1[C@@H](n2cc(-c3ccc(Cl)c(F)c3F)nn2)[C@@H](O)[C@@H](CO)O[C@@H]1Cc1cn(C2(C(F)(F)F)CC3CCC2C3)nn1 (stereo partly shown)
2. CO[C@@H]1[C@@H](n2cc(-c3ccc(C#N)c(F)c3F)nn2)[C@@H](O)[C@@H](CO)O[C@@H]1Cc1cn([C@H]2CCOC[C@@H]2F)nn1
3. CO[C@@H]1[C@@H](n2cc(-c3ccc(Br)c(F)c3F)nn2)[C@@H](O)[C@@H](CO)O[C@@H]1Cc1cn(C23CC(F)(C2)C3)nn1
4. CO[C@@H]1[C@@H](n2cc(-c3ccc(F)c(F)c3F)nn2)[C@@H](O)[C@@H](CO)O[C@@H]1Cc1cn(C2(C(F)(F)F)CCC2)nn1
5. COC1=C(N2CC(c3ccc(Cl)c(F)c3F)NN2)C(O)=C(CO)O[C@@H]1Cn1cc(C23CCC(NC(=O)OC(C)(C)C)(CC2)CC3)nn1 (stereo partly shown)
6. COC1=C(N2CC(c3ccc(C)c(F)c3F)NN2)C(O)=C(CO)O[C@@H]1Cn1cc(C23CCC(NC(=O)OC(C)(C)C)(CC2)CC3)nn1 (stereo partly shown)
7. CO[C@@H]1[C@@H](n2cc(-c3ccc(Cl)c(F)c3F)nn2)[C@@H](O)[C@@H](CO)O[C@@H]1Cc1cn(C2(C(F)F)CCC2)nn1

Output:
[6.08, 5.80, 5.49, 6.74, 4.88, 5.03, 6.21]
